# SYSTEM_TESTED: human CYP2C19 (Homo sapiens, UniProt P33261)
# Sequence (P33261 whole entry): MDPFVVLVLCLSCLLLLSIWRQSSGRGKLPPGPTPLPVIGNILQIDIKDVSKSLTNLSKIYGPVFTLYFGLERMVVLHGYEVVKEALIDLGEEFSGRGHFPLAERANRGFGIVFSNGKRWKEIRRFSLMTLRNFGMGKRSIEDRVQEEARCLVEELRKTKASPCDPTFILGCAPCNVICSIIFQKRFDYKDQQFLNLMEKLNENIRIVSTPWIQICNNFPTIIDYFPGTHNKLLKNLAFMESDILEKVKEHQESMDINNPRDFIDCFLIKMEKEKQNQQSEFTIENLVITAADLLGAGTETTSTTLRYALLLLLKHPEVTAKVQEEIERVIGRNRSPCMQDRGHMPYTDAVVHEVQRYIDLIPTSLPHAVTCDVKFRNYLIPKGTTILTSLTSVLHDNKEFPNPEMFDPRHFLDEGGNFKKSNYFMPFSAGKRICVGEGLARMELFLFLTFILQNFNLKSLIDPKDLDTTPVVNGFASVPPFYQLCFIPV
# ASSAY_EXPLANATION: biochemical
# ASSAY_CONDITIONS: CYP2C19 AC50 (half-maximal activity concentration)
Catalogue of AC50 values
Kindly answer with a numeric value in µM, unit omitted.

Completed entries (count: 4):
>>> value("C[C@]12CCC(=O)C=C1CC[C@@H]1[C@@H]2CC[C@]2(C)C(=O)CC[C@@H]12")
33.3
>>> value("CC(C)(C)c1ccc(CSc2cnn(C(C)(C)C)c(=O)c2Cl)cc1")
8.29
>>> value("NC(=O)Cc1cccc(C(=O)c2ccccc2)c1N")
29.9
>>> value("CC1CCC(C(C)C)C(OC(=O)c2ccccc2N)C1 (centres unmarked) [Menthyl anthranilate]")
4.62

Consider now this further compound.
Lookup result for O=[N+]([O-])c1ccc2c3c(cccc13)CC2 ; measured AC50: 33.6
